- target-entity: D(1A) dopamine receptor (Homo sapiens) (UniProt P21728)
- Sequence (P21728 whole entry, looked up): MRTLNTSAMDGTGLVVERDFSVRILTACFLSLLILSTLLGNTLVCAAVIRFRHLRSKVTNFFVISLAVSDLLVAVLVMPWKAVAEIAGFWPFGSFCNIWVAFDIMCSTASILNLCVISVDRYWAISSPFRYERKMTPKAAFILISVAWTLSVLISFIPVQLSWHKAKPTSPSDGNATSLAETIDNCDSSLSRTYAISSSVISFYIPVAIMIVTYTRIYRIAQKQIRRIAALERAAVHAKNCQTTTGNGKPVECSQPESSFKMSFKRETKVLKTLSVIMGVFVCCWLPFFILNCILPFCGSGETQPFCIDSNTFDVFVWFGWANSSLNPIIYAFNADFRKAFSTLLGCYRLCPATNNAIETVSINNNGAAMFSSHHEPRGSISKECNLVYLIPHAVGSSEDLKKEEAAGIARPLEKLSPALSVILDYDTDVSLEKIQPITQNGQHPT
- method: Antagonist of Human D 1 Dopamine Receptor: qHTS; note: % is set by controls: 0 for no effect and ±100 for the full control effect
- assay-setup: HEK293 TREx D1 cells, calcium flux, dopamine EC80; at 10 µM; hits give low values
About 11,000 (3.1%) of roughly 360,000 compounds were called active. Many of the other results were omitted from the sample, so actives are more common in it than they were.
metric: activity change, negative = inhibition (%)
Give the number; % is assumed, so skip it.

molecule	unit-info	activity change, negative = inhibition
Cc1nc(CNS(=O)(=O)c2ccc(Oc3ccccc3)cc2)cs1	%	-42.6
O=C(COC(=O)C1CC2C=CC1C2)Nc1ccccc1 (stereo not given)	%	-18.1
O=C(NCC(c1ccco1)S(=O)(=O)c1cccs1)c1ccc(F)cc1 (stereo not given)	%	-7.39
CCC(=O)N1CCN=C1SCc1ccc(F)cc1	%	-8.09
O=C(Nc1cc(-c2nc3ccccc3o2)ccc1Cl)c1cc([N+](=O)[O-])ccc1N1CCOCC1	%	-2.21

Q: Can you share its activity change, negative = inhibition? I mean this molecule: CCOC(=O)c1cccc(NS(=O)(=O)c2c(C(=O)N3CCCCCC3)c(C)n(C)c2C)c1
A: 14.9

Q: Then what about the molecule CCn1cc(C(=O)OCC(=O)Nc2cc(C)cc(C)c2)c(=O)c2ccc(C)nc21 ?
A: 7.91

Q: Then what about the molecule CC(C)c1ccc(NC(=O)NC2CCCCC2)cc1 ?
A: -4.57

Q: Then what about the molecule CCC(=O)Nc1ccc(S(=O)(=O)NCC2CCCO2)cc1 (stereo not given) ?
A: -9.18

Q: Then what about the molecule Cc1cc2n(n1)C(c1cc(C(C)(C)C)c(O)cc1O)Nc1ccccc1-2 (stereo not given) ?
A: 0.223

* * *

- target-entity: D(1A) dopamine receptor (Homo sapiens) (UniProt P21728)
- method: Antagonist of Human D 1 Dopamine Receptor: qHTS; note: % is set by controls: 0 for no effect and ±100 for the full control effect
- assay-setup: HEK293 TREx D1 cells, calcium flux, dopamine EC80; at 10 µM
Hit rate of the full screen: of about 360,000 compounds, about 11,000 (3.1%) were called active. No stated cut-off is given here; in the data, active means activity change below about -30%; inactive means the rest. For the sample, actives were picked, then their nearest neighbours and some compounds at random.
The categories you may choose from are yes = active, no = inactive

Consider the following illustrative entries.
compound	target-entity	category
CC(NC(=S)Nc1ccc(OC(F)F)cc1)c1ccc(F)cc1 (stereo unspecified)	D(1A) dopamine receptor (Homo sapiens) (UniProt P21728)	yes
S=C(NCCc1ccccc1)NCc1ccccc1Cl	D(1A) dopamine receptor (Homo sapiens) (UniProt P21728)	no
COc1ccc2c(c1)c(=O)c(S(=O)(=O)c1ccc(F)cc1)cn2CC(=O)Nc1ccc(C)cc1C	D(1A) dopamine receptor (Homo sapiens) (UniProt P21728)	no
O=C(CCn1c(=O)c2ccccc2n(Cc2ccc(Cl)cc2)c1=O)NCc1ccc2c(c1)OCO2	D(1A) dopamine receptor (Homo sapiens) (UniProt P21728)	no
COc1ccc(Cl)cc1NC(=O)CCC(=O)c1ccc(C)cc1	D(1A) dopamine receptor (Homo sapiens) (UniProt P21728)	no

Q: Name the outcome recorded for CCOc1ccc(CCNC(=O)c2cc3c(=O)n(C)c4ccccc4c3n2C)cc1 in the assay.
A: yes

Q: Then what about the compound Cc1ccc(NC(=S)NCc2ccccc2Cl)c(C)c1 ?
A: yes

Q: Then what about the compound CCOC(=O)N1CCc2c(sc3c2C(=O)NC(c2ccccc2F)N3)C1 (stereo unspecified) ?
A: no

Q: Then what about the compound COc1ccc(C)cc1NC(=O)CSc1ccc(Cl)cc1 ?
A: no

Q: Then what about the compound O=C(Nc1ccc2c(c1)OCCO2)C1CCCC1 ?
A: yes

Q: Then what about the compound CC(=O)c1ccc(NC(=O)CSc2nc(-c3ccccc3F)nc3c2c(=O)n(C)c(=O)n3C)cc1 ?
A: no

Value source: PubChem BioAssay AID504652
